B1: PEX5 peptide 240-255 (Peroxisomal targeting signal 1 receptor), 16-mer library wild type / PEX14 Pex14 (PEX14 PEX14, residues 16-84) (parent)
chain 1: AEQWAAEFIQQQGTSD
chain 2: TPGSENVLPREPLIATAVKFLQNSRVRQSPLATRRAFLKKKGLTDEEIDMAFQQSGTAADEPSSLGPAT

variants of: B1; experiment: proteomic peptide phage display deep mutational scan (ProP-PD DMS): M13 P8 16-mer library selected against immobilised GST-tagged bait for four days (rounds), NGS of the eluted pools per day and pseudo-replica; details: with PEX14 Pex14 (PEX14 PEX14, residues 16-84); bait immobilised on MaxiSorp plates (10 µg), library pre-cleared on GST, 2 h binding at 4 °C, five washes; one round per day, days 1-4; value from days 2 and 3; keep out of graded; scale: average fractional NGS count over selection days 2 and 3
screen value vs 0.0001: at or above is true (1), below is false (0).

Examples with answers:
chain 1 A5G: false (0)
chain 1 W4P: false (0)
chain 1 A6H: true (1)
chain 1 W4H: false (0)
chain 1 Q3Y: false (0)

Determine whether measured screen value meets or exceeds 0.0001 for chain 1 S15F
false (0)

Please tell me: is the variant chain 1 E7P at or over 0.0001 in terms of screen value?
true (1)

Does the variant chain 1 W4R have recorded screen value that is 0.0001 or more?
true (1)

Answer whether screen value of chain 1 G13N is greater than or equal to 0.0001.
true (1)

Assess whether reported screen value for chain 1 G13L sits at 0.0001 or higher.
false (0)

Check if screen value >= 0.0001 (inclusive). Item: chain 1 W4L
false (0)

Identify whether the reported screen value of the following variant is 0.0001 or greater: chain 1 F8K
false (0)

hey, is screen value for this one >= 0.0001? chain 1 Q11D
false (0)

Please tell me: is the variant chain 1 G13R at or over 0.0001 in terms of screen value?
false (0)
